Test system: Jurkat
experimentalProtocol: Cytotoxicity against human Jurkat cells assessed as inhibition of cell viability at 72 hrs by SRB assay
Assay type: functional, cell-based
measurementLabel: IC50 (nM)
Give bare numbers, in nM.

Exercise: Quick one: IC50 of `O=C(/C=C/c1cccnc1)NCCCCC1CCN(C(=O)c2ccccc2)CC1` ?
Key: 0.73

---

System: ML-2
experimentalProtocol: Cytotoxicity against human ML-2 cells assessed as inhibition of cell viability at 72 hrs by SRB assay
Type: functional, cell-based
runParameters: ML-2, 72 h
Exercise: for every item that follows, state its recorded IC50.
Numbers only, in nM.

# entrySmiles, u, endpointValue
records = [
    ("N#C/N=C(\\NCCCCCCC(=O)N(Cc1ccco1)c1ccc([N+](=O)[O-])cc1)Nc1ccncc1", "nM", 0.32),
]

List reported IC50 for each of these compounds:
1. O=C(/C=C/c1cccnc1)NCCCCC1CCN(C(=O)c2ccccc2)CC1
2. N#C/N=C(\NCCCCCC(=O)N(Cc1ccco1)C1CCCC1)Nc1ccncc1
3. O=S(=O)(CCCCCCNC(=S)Nc1cccnc1)N(Cc1ccco1)C1CCCC1

Key:
[0.24, 0.36, 3.1]
